B1: HDV Ribozyme (parent)
chain: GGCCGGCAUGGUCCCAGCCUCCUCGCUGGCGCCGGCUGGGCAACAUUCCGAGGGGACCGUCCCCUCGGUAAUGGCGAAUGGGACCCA

variants of: B1; assay: self-cleavage, relative activity (ratio to wild type); higher = more cleavage; co-transcriptional
// values below are reported self-cleavage
When you answer, write just the number.

Observe how each entry below is paired with its result.
# MUTANT LABEL, VALUE OBSERVED
measured = [
    ("U23A G80U", 0.113),
    ("C62A G76A", 1.13),
    ("G1C C22G", 0),
]

**Q:** Provide measured self-cleavage value, entry: A8C C58A
**A:** 0.692

**Q:** Provide measured self-cleavage value, entry: C4A G53A
**A:** 0.201

**Q:** Provide measured self-cleavage value, entry: C15U C21A
**A:** 0
